test system: MS2 coat protein; assay: apparent Kd, MS2 coat protein; higher = weaker binding; RNA-MaP array; settings: ligand present: flavin mononucleotide; designed as: OFF switch for flavin mononucleotide
Label label 1 when apparent Kd is at or above 0.02 µM; anything below gets label 0.

State whether the measured apparent Kd reaches 0.02 µM, counting equality as reaching it, for UACUCAAGAGUAAGGAUAUAGAACCAAAUAGCGGACUAGAAGGUACAUGAGGAUCACCCAUGUCAAAGACAGAA label 0

Input UGCCUAUACCAGAAGGGCGUACGGGAAAACAUGAGGAUCACCCAUGUGAGAUCAUCAUCGCUAGCGCAGGAUAUGGAAGUUCGG label 1

Input UCUCAUCAGUAGAAGGGCAGACCCUAACAAGGUGCAGGAUAUACUCUAAGUCCUACAUGAGGAUCACCCAUGUCAUAUAUCGGG label 1

Input UGACACAUGAGGAUCACCCAUGUUGGGUAAUGUUAACGUACAAGAAGGGCAGCCGGCCGGACGUUGCAGGAUAUUGUAGCGCGA label 1

Input AAACAAGUAGGAUAUACAUGAGGAUCACCCAUGUAUUGUGAGGAUAGUACUGUACCAUGUAGAAGGACUCCGGA label 0

Input GAUCGUUGGGAGGAUAUCCGCAAGUCCAGGGAGGGAGAAGGCCCAACAUGAGGAUCACCCAUGUAGAAGCGCAU label 1

Input CUCCUACAUGAGGAUCACCCAUGUGAGGAUAUCUCCCAGUGGGAAUAGUUUCCAUGGAAGAGAAGGCACAGUGA label 1

Input UAGAUCCCAGUCAGGAUAUCCAGGGAGAAUAGGAGGGAGAAGGGACAUGAGGAUCACCCAUGUAUGCGACUACC label 0

Input AUCAUAAGAGUAGGAUAUCGACAUGAGGAUCACCCAUGUACCUUGGAUGACCGCUAAUGGUUUAUCGAGAAGGACUUUUCCUCC label 0

Input AUUGUGUAAGGAUAUUAUAGAAGAGGUAGGCAACUUCUGAAUAAGAAGGUACAUGAGGAUCACCCAUGUUCAAU label 0

Input GUAGGUUGCCAAGGAUAUGCGGGUACUCUUCCGAAACAUGAGGAUCACCCAUGUACUCUCCUGUAGCAGAAGGUGGCUUGGUGA label 1

Input AUGUAGAAUCUAGGAUAUGCGAGAAACUGCGAAGCAGAAGGAGACUUGUACAUGAGGAUCACCCAUGUCCCGGGCGUCCCAACU label 1

Input AGCAUCGCAGGAUAUACAUGAGGAUCACCCAUGUAAAAUAACAAACUUGAACCUGCAAGUAGAAGGGCGUAACG label 0

Input GCAUUAGGGUAAGGAUAUUGAAUUAAACAUGGCAAAGUAAUUUUUGACAUGAGGAUCACCCAUGUCAAGAAGGUACUCAUUCAU label 0

Input CAGUAAGUAGGAUAUGUAUCAAGCUACAUGAGGAUCACCCAUGUGAACCCUAACAGCUGAACAGAAGGACUGUGUG label 1

----------
test system: MS2 coat protein; assay: apparent Kd, MS2 coat protein; higher = weaker binding; RNA-MaP array; theophylline 2 mM where present; conditions: ligand present: theophylline; designed as: ON switch for theophylline
METRIC: apparent Kd
Numeric answer plus unit only.

Using the record for AUGUCGUUGAAUAUAGCGGCUUGGAGUGAUACCAGAAUGAUCUAAUUCCCUUGGCAGCAUUACAUGAGGAUCACCCAUGUUCCAG , report its apparent Kd. 39.7 nM

Input AUCGUACCUGAUGAUACCAGCAUGUGAUCAUAACAUGAGGAUCACCCAUGUAAUCAGUGAUGCCCUUGGCAGCAUAGUCGAUACA 55.9 nM

Input AGAUUACAUGUUAUAAUACGGUAUACUGAUACCAGUGUUUCUAUUCACCCUUGGCAGCAGCAACAUGAGGAUCACCCAUGUAUUA 16 nM

Input GGUGGUGUGACGGAUACCAGCCACCGCGGCAACGCAACAUGAGGAUCACCCAUGUUGGGUGGCCCUUGGCAGCUGUCGUGCGGCG 84.7 nM

Input GCUGUAAGUGCAGAUACCAGCAGGUGAUAUUUCAUAUGACAUGAGGAUCACCCAUGUAACUGCCCUUGGCAGCUGCACUUACAGC 40.9 nM

Input CCGAACAUGAGGAUCACCCAUGUUAGGGAUACCAGCCCAGACAUGGGCCCUUGGCAGCUCUAUAGCUGACGAAAGUCAGCAUCGG 30.5 nM

Input UGUAACAUGAGGAUCACCCAUGUAAGUGAUACCAGAUAAGUAGUAGUCCCUUGGCAGCAUAUUGGGAAAGUGUAUAGUCUAUACG 65.1 nM

Input AAACUAACGAGAGGAAACCUCGAGGGUGAUACCAGCACAUAAGGGUGCCCUUGGCAGCACCGACGUACAUGAGGAUCACCCAUGU 65 nM

Input UCGUGUGUUUCGGAUACCAGUGAAAUCGAUACAUGAGGAUCACCCAUGUGAGAGGAUGUACACCCUUGGCAGCUGGCUGUUGCGG 42.6 nM

Input CCUGCUACGGGAAACCGUAGCAGGAAUGAUACCAGUAGGAAAGACUACCCUUGGCAGCAUGGGAAACAUGAGGAUCACCCAUGUU 56.6 nM

Input AUCGUACCUGAUGAUACCAGCAUGUGCUCGUAACAUGAGGAUCACCCAUGUGAUCAGUAAUGCCCUUGGCAGCAUGAUCGGUACA 14.3 nM

Input AGUACACGAACGGAUACCAGCCGGACAUGAGGAUCACCCAUGUCCUACCUCUGUUCGGUUGGCCCUUGGCAGCCGUUCGUGUACA 88.3 nM

Input ACCCUAGCGAUCGCUCGCUAGGGUGCGGAUACCAGCGAGGUCCAUCGCCCUUGGCAGCCGAACAUGAGGAUCACCCAUGUCGGUA 14.3 nM

Input CCUGCGUUUCUUUUCUUUCGCAGGAAUGAUACCAGUAGGGAAACCUACCCUUGGCAGCAUGGGUAACAUGAGGAUCACCCAUGUU 82.2 nM

Input UAUACAUGGGAUACCAUGGAUCCGAGUGAUACCAGCUAUCCGAAUAGCCCUUGGCAGCACAGUACAUGAGGAUCACCCAUGUAUA 33 nM

Input UUUUAACAUGAGGAUCACCCAUGUAAUGAUACCAGAGACGAAAGUCUCCCUUGGCAGCAUAUAUCAUUACUCAUAGGAAACUAUG 16 nM

Input GGUGGUGGGACGGAUACCAGCCACCGCGGCAACGCAACAUGAGGAUCACCCAUGUUGGGUGGCCCUUGGCAGCUGUCCUGCGGCG 13.1 nM

Input CAUACUUUAGUAUGACAUGUGGGCAGUGAUACCAGAUACGAAAGUAUCCCUUGGCAGCACAACAUGAGGAUCACCCAUGUAAUUA 59.2 nM

Input UGAACAUGAGGAUCACCCAUGUAGUCAGAUACCAGACACUGCAUGGUCCCUUGGCAGCUGAAGAGCGUUUGCCAAAUAACGUUCA 567 nM

Input UGUAACAUGAGGAUCACCCAUGUAAGUGAUACCAGAUAAGUAGUAGUCCCUUGGCAGCAUAUUGGGAAAGUGUAUAGUCUAUAUU 55.6 nM

Input AACAUGAGGAUCACCCAUGUAUUGGGUGAUACCAGCCUGAAUAAUGGCCCUUGGCAGCACCACGCUAACUUUAUGUCUGCGAACC 162 nM

Input GCCAGACAUGAGGAUCACCCAUGUAGCGAUACCAGCUCUGUUGUGAGCCCUUGGCAGCGCACUGGCAUCGCGGGUGAUCCUGCAU 164 nM

Input UUUGAUAGGACAGAUACCAGCGUGUUAUAAAACAUGAGGAUCACCCAUGUAGUGAUCAAGCGCCCUUGGCAGCUGGUUUGUUAGG 323 nM

Input AUUAAAAGUUGUGAUACCAGACGAACAUGAGGAUCACCCAUGUAACUUUUAGGUGUUGUAGUCCCUUGGCAGCACUAUGUAGUUA 38.2 nM

Input GAUCUGUCGGGUGAUACCAGCCUCGGCACAUCUCGUGCCGAACAUGAGGAUCACCCAUGUGGCCCUUGGCAGCACAUGACAAAUC 55.1 nM

Input AAUUUGUCGGGUGAUACCAGCCUCGGCGCGUCUCGCGCUGAACAUGAGGAUCACCCAUGUGGCCCUUGGCAGCACAUGACAAAUC 38.2 nM

Input UUUACAUGAGGAUCACCCAUGUGCCAUGAUACCAGACAUGAAAAUGUCCCUUGGCAGCAUGAAUAAUCCUCGUCGGGAAACCGAC 544 nM

Input ACAUGAGGAUCACCCAUGUCAAGGCACGAUACCAGCUGAUCCCGUGGCCCUUGGCAGCGUCACGUUUGGUCCCGCGGAUGACACG 95.8 nM

----------
tested on: MS2 coat protein; assay: apparent Kd, MS2 coat protein; higher = weaker binding; RNA-MaP array; conditions: designed as: OFF switch for flavin mononucleotide; no ligand
METRIC: apparent Kd (µM)
Hi! Could you send only the number? It should be in µM, unit omitted.

Using the record for AGAUUUUGCCAAGGAUAUUCGAUGCAUCAUGACAUGAGGAUCACCCAUGUAUAACGACUUGGGCUGAAGAAGGUGGACCAAGCU , report its apparent Kd. 0.0118

Input AUACCAACGGUCAGGAUAUAGGUAACAAGGAAAGACUAGAAGGGACAUGAGGAUCACCCAUGUUUUAACAUGAU 0.00728

Input UCUGGUUGAGGAUAUACAUGAGGAUCACCCAUGUCACCUAGCAAAGUAGAGAGUAAGUGUAGAAGGCAACCUUU 0.0156

Input CCCUCGUUAUAGAAGGUCACAUUAAAUAAACAUGAAGGAUAUAUACCCAUUACACAUGAGGAUCACCCAUGUUAGGGCUGGCAU 0.0142

Input AUCAAGUCAGGAUAUGAACUAAAGAUGGAAAACGUAGCAAAACAGAAGGGACAUGAGGAUCACCCAUGUGGAAG 0.0199

Input AUCGCAGAUGUAAGGAUAUUAGUGUAGCAACGGUCAAAGAAGGAACAUGAGGAUCACCCAUGUGGUAGAUAAAU 0.019

Input UCUCAUCAGUAGAAGGGCAGACCCUAACAAGGUGCAGGAUAUACUCUAAGUCCUACAUGAGGAUCACCCAUGUCAUAUAUCGGG 0.323

Input GCAAAAUACAUGAGGAUCACCCAUGUUAAGUGGGCCUGAACAAGAAGGCAGCAAAUUUUAUUUUCUGAGGAUAUUGGCAUAUAU 0.0302

Input GCUAUGAACGUAGGAUAUGAAGCCUGGCUUGGUUCAGAAGGACGUGAGUAAGUGAGGUCCUGACAUGAGGAUCACCCAUGUACA 0.0239

Input CGAACAUGAGGAUCACCCAUGUGUUUCCUUGGUAGACGACAUAGAAGGGCCGUAAAUUACAGCGGGCAGGAUAUAUGACUUAAG 0.164

Input CCACUACAUGAGGAUCACCCAUGUCAGGAUAUCAACCACGCCUCUCCUUGGACGUAGAUGAGAAGGGACGUGGG 0.0167

Input GUAACUCAGGUCAGGAUAUUCGAGUAAGGGAAAACGAAGAAGGGACAUGAGGAUCACCCAUGUAACACGACUAU 0.0181

Input UAGGUUAGGUAGAAGGGCAAGUAAUUCCACAUGAGGAUCACCCAUGUUCCUGUUUGGGAGGCUGUGCAGGAUAUACGAAAAUAA 0.117

Input GCCCGUUAUUAGAAGGGUAUUCGGAUAUGCAUUCCUUACAUGAGGAUCACCCAUGUACCGCGAGUACAGGAUAUAAAACCGCCA 0.0752

Input GUCGUAGGCUAAGGAUAUAGUGAAAGAGUGAAGGCCUGAUCAGACAUGAGGAUCACCCAUGUGAACUAGAAGGUAGGCAAGGCU 0.0135

The reported numbers originate from the EternaBench riboswitch data.
